Where do the numbers come from? From patent US10487093B2.

Kindly supply the reported MIC values for the records listed here.
- Test system: strains of Parvimonas micra
- methodSummary: MIC against anaerobes, agar dilution (CLSI), clinical isolates
- Assay type: cell-based
- runConditions: Parvimonas micra strain 7

Here is how some compounds turned out for MIC.
{"compound": "CN[C@H](CC(C)C)C(=O)N[C@H]1C(=O)N[C@@H](CC(N)=O)C(=O)N[C@H]2C(=O)N[C@H]3C(=O)N[C@H](C(=O)N[C@H](C(=O)O)c4cc(O)cc(O)c4-c4cc3ccc4O)[C@H](O)c3ccc(c(Cl)c3)Oc3cc2cc(c3O[C@@H]2O[C@H](CO)[C@@H](O)[C@H](O)[C@H]2O[C@H]2C[C@](C)(N)[C@H](O)[C@H](C)O2)Oc2ccc(cc2Cl)[C@H]1O [VAN, vancomycin, reference compound]", "observedMeasurement": "1 to 4 µg/mL"}
{"compound": "Cc1ccc2ncc(=O)n(CCN[C@H]3CC[C@H]4[C@@H](C3)OC(=O)N4c3ccc4c(n3)NC(=O)CO4)c2c1", "observedMeasurement": "16 to 64 µg/mL"}
{"compound": "Cc1ncc([N+](=O)[O-])n1CCO [MTZ, metronidazole, reference compound]", "observedMeasurement": "< 1 µg/mL"}

**Q:** Which MIC value belongs to `COc1ccc2ncc(=O)n(CCN[C@@H]3CC[C@@H]4[C@@H](C3)OC(=O)N4c3ccc4c(n3)NC(=O)CO4)c2c1` ?
**A:** < 1 µg/mL

----------
- System: Haemophilus influenzae ATCC 49247
- methodSummary: MIC, broth microdilution (CLSI) versus planktonic bacteria
- Type: cell-based
- runConditions: ATCC49247; Haemophilus influenzae ATCC 49247; 16-20 h; mode of three independent experiments; read-out: MIC, Hi ATCC 49247
observationType: MIC

Here is how some compounds turned out for MIC.
{"chemSmiles": "C=CCOc1ccc2ccc(=O)n(CCN[C@H]3CC[C@H]4[C@H](C3)OC(=O)N4c3ccc4c(n3)NC(=O)CO4)c2c1", "MIC": "1 to 10 µg/mL"}
{"chemSmiles": "N#Cc1ccc2ccc(=O)n(CCN[C@@H]3CC[C@@H]4[C@@H](C3)OC(=O)N4c3ncc4c(n3)NC(=O)CO4)c2c1", "MIC": "< 1 µg/mL"}

Could you now look at the following compound, please?
**Q:** Which MIC value belongs to `CN(CCn1c(=O)ccc2ccc(C#N)cc21)[C@H]1CC[C@H]2[C@@H](C1)OC(=O)N2c1ccc2c(n1)NC(=O)CO2` ?
**A:** < 1 µg/mL

----------
- Test system: Enterobacter cloacae NCTC 13406
- methodSummary: MIC, broth microdilution (CLSI) versus planktonic bacteria
- Assay type: cell-based
- runConditions: NCTC13406; Enterobacter cloacae NCTC 13406; 16-20 h; mode of three independent experiments; read-out: MIC, Ecl NCTC 13406
observationType: MIC

Hey, quick one: what's MIC for each of these?
1. Cc1ccc2ncc(=O)n(CCN[C@H]3CC[C@H]4[C@@H](C3)OC(=O)N4c3ccc4c(n3)NC(=O)CO4)c2c1
2. NCCCOc1ccc2ccc(=O)n(CCN[C@@H]3CC[C@@H]4[C@@H](C3)OC(=O)N4c3ccc4c(n3)NC(=O)CO4)c2c1
3. CN(CCn1c(=O)ccc2ccc(C#N)cc21)[C@H]1CC[C@H]2[C@@H](C1)OC(=O)N2c1ccc2c(n1)NC(=O)CO2
4. O=C1COc2ccc(N3C(=O)O[C@@H]4C[C@@H](NCCn5c(=O)ccc6ccc(Oc7cccnc7)nc65)CC[C@@H]43)nc2N1

**A:**
1 to 10 µg/mL
10 to 100 µg/mL
< 1 µg/mL
1 to 10 µg/mL

Hey, quick one: what's MIC for each of these?
1. NCCOc1ccc2ccc(=O)n(CCN[C@H]3CC[C@H]4[C@@H](C3)OC(=O)N4c3ccc4c(n3)NC(=O)CO4)c2n1
2. COc1ccc2ccc(=O)n(CCN[C@H]3CC[C@H]4[C@@H](C3)OC(=O)N4c3ncc4c(n3)NC(=O)CO4)c2n1

**A:**
1: > 100 µg/mL; 2: 1 to 10 µg/mL

Hey, quick one: what's MIC for each of these?
1. CN(CCn1c(=O)ccc2ccc(OCCN)cc21)[C@@H]1CC[C@@H]2[C@@H](C1)OC(=O)N2c1ccc2c(n1)NC(=O)CO2
2. O=C1COc2ccc(N3C(=O)O[C@@H]4C[C@H](NCCn5c(=O)cnc6ccc(F)cc65)CC[C@H]43)nc2N1
3. N#Cc1cnc2ccc(=O)n(CCN[C@H]3CC[C@H]4[C@@H](C3)OC(=O)N4c3ccc4c(n3)NC(=O)CO4)c2c1
4. COc1ccc2ccc(=O)n(CCN[C@H]3CC[C@H]4[C@H](C3)OC(=O)N4c3ccc4c(n3)NC(=O)CS4)c2n1
5. COc1ccc2ccc(=O)n(CCN[C@@H]3CC[C@@H]4[C@@H](C3)OC(=O)N4c3ccc4c(n3)NC(=O)CO4)c2n1
6. N#Cc1cnc2ccc(=O)n(CCN[C@H]3CC[C@H]4[C@H](C3)OC(=O)N4c3ccc4c(n3)NC(=O)CS4)c2c1
7. COC(=O)c1ccc2ccc(=O)n(CCN[C@@H]3CC[C@@H]4[C@@H](C3)OC(=O)N4c3ccc4c(n3)NC(=O)CO4)c2c1

**A:**
["1 to 10 µg/mL", "< 1 µg/mL", "< 1 µg/mL", "< 1 µg/mL", "< 1 µg/mL", "< 1 µg/mL", "< 1 µg/mL"]

Hey, quick one: what's MIC for each of these?
1. COc1ncc2ccc(=O)n(CCN[C@H]3CC[C@H]4[C@@H](C3)OC(=O)N4c3ccc4c(n3)NC(=O)CO4)c2n1
2. CCCOc1ccc2ccc(=O)n(CCN[C@H]3CC[C@H]4[C@H](C3)OC(=O)N4c3ccc4c(n3)NC(=O)CO4)c2c1
3. COc1cccc(-c2cccc(CN[C@H]3CC[C@H]4[C@H](C3)OC(=O)N4c3ccc4c(n3)NC(=O)CO4)c2)n1
4. O=C1COc2ccc(N3C(=O)O[C@@H]4C[C@H](NCCCn5c(=O)cnc6cc(F)c(F)cc65)CC[C@H]43)nc2N1

**A:**
["10 to 100 µg/mL", "1 to 10 µg/mL", "1 to 10 µg/mL", "< 1 µg/mL"]
